# method.description: Confirmation and Secondary Assay for Modulators of Hemoglobin Beta Chain Splicing at IVS2 705 locus (AID 930);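 also: HeLa cells stably expressing the EGFP-705 splicing reporter; GFP fluorescence per well restored by corrected splicing of the IVS2-705 intron in EGFP; % of control where 0% means no effect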
# measurement.setup: HeLa EGFP-705 splicing reporter, GFP fluorescence, 48 h; series mostly up to 46.1 µM
Activity calls are given as the source filed them. Calls follow the shape of the dose curve; as a rule, active = well fitted activation curve with a large enough effect; inconclusive = small, poorly fitted or top-dose-only effect; inactive = flat fitted curve, though single readings scatter.
measured.parameter: outcome

Solved entries:
>  <compound>
C=CCC1(C(C)CCC)C(=O)N=C(S)NC1=O (stereo not given)

>  <measured.parameter>
outcome

>  <recorded.measurement>
inactive

$$$$
>  <compound>
NC(Cc1ccc(N(CCCl)CCCl)cc1)C(=O)O (stereo not given)

>  <measured.parameter>
outcome

>  <recorded.measurement>
inactive

$$$$
>  <compound>
OC1CCCCC1N1CCC(c2ccccc2)CC1 (stereo not given)

>  <measured.parameter>
outcome

>  <recorded.measurement>
inactive

$$$$
>  <compound>
[Cl-].[Cl-].[Hg+2]

>  <measured.parameter>
outcome

>  <recorded.measurement>
inactive

$$$$
>  <compound>
CCCC(C)C1(CC)C(=O)NC(=O)NC1=O (stereo not given)

>  <measured.parameter>
outcome

>  <recorded.measurement>
inactive

$$$$
>  <compound>
C[CH2][Hg][S]c1ccccc1C(=O)O

>  <measured.parameter>
outcome

>  <recorded.measurement>
inactive

$$$$
>  <compound>
ClC1C(Cl)C(Cl)C(Cl)C(Cl)C1Cl (stereo not given)

>  <measured.parameter>
outcome

>  <recorded.measurement>
inactive

$$$$
>  <compound>
COc1ccc2c(c1OC)C(=O)OC2C1c2cc3c(cc2CCN1C)OCO3 (stereo not given)

>  <measured.parameter>
outcome

>  <recorded.measurement>
inactive

$$$$
>  <compound>
[N-]=[N+]=CC(=O)OCC(N)C(=O)O (stereo not given)

>  <measured.parameter>
outcome

>  <recorded.measurement>
inactive

$$$$

Next, consider the following compound.
For the compound `O=C1CCO1` , report outcome.
inactive

====

# method.description: qHTS assay for small molecule agonists of the antioxidant response element (ARE) signaling pathway measured by Nrf2-dependant transcriptional activity - cell viability counter screen (AID 720653); also: % is scaled to controls: 0 for no effect and ±100 for the full control effect
# measurement.setup: ARE-bla HepG2 viability, CellTiter-Glo ATP luminescence, 16 h; stronger effect = lower value
Results filed as inconclusive are left out. Activity calls are given as the source filed them. Calls come from the whole dose curve; as a rule, active = well fitted cell-killing curve with a large enough effect in the repeat runs; inconclusive = weak or mixed curves; inactive = flat fitted curve, though single readings scatter.
measured.parameter: max response

Solved entries:
>  <molecule>
C#CCN1CC(=O)N(COC(=O)C2C(C=C(C)C)C2(C)C)C1=O (centres undefined)

>  <max response>
2.56% (inactive)

$$$$
>  <molecule>
NNC(N)=O

>  <max response>
4.7% (inactive)

$$$$
>  <molecule>
O=[N+]([O-])c1ccc(F)c([N+](=O)[O-])c1

>  <max response>
-6.71% (inactive)

$$$$

Next, consider the following molecule.
For the molecule ClC1C(Cl)C(Cl)C(Cl)C(Cl)C1Cl (centres undefined) , report max response.
-5.28% (inactive) [middle of 4 runs]

====

# Tested on: Dd2
# method.description: qHTS profiling for inhibitors of Plasmodium falciparum proliferation (AID 504749); also: nearly all actives have a fitted effect of over 60% in size
# measurement.setup: P. falciparum in erythrocytes, SYBR Green DNA, 72 h; series mostly up to 28.7 µM
Inconclusive results are not listed. Calls of active or inactive are those of the source. The call rests on the fitted dose curve; in most records, active means well fitted inhibition curve with a large enough effect; inconclusive means small, poorly fitted or top-dose-only effect; inactive means flat fitted curve, though single readings scatter.
Hi there, use one of these labels in your reply, thanks! True for active, False for inactive

Consider the following illustrative entries.
>  <compound>
C[C@H]1CC[C@@H]2[C@@H](C)[C@H]3[C@H](C[C@H]4[C@@H]5CC=C6CC(O[C@@H]7O[C@H](CO)[C@H](O)[C@H](O[C@@H]8O[C@H](CO)[C@@H](O)[C@H](O)[C@H]8O)[C@H]7O[C@H]7O[C@@H](C)[C@H](O)[C@@H](O)[C@H]7O)CC[C@]6(C)[C@H]5CC[C@]34C)N2C1 (stereo not given in full)

>  <class.name>
False

$$$$
>  <compound>
S=C=S

>  <class.name>
False

$$$$
>  <compound>
O=c1[nH]cc(N(CCCl)CCCl)c(=O)[nH]1

>  <class.name>
False

$$$$
>  <compound>
C=CCN=C=S

>  <class.name>
False

$$$$
>  <compound>
COC([CH2][Hg])CNC(=O)c1ccccc1OCC(=O)O (stereo not given)

>  <class.name>
False

$$$$
>  <compound>
CC(=O)O[C@H]1CC[C@H]2[C@@H]3CCC4=CC(=O)CCC4=C3C=C[C@]12C

>  <class.name>
False

$$$$

I'd appreciate the recorded outcome for `CCC1(C)CC(=O)NC(=O)C1` from this test.
False

I'd appreciate the recorded outcome for `O=S(=O)(O)c1cc(O)ccc1O` from this test.
False

I'd appreciate the recorded outcome for COc1ccc2c(c1OC)C(=O)OC2C1c2cc3c(cc2CCN1C)OCO3 (stereo not given) from this test.
False

I'd appreciate the recorded outcome for `CC(C)Nc1ccc(Nc2ccccc2)cc1` from this test.
True

I'd appreciate the recorded outcome for CCCC(C)C1(CC)C(=O)NC(=O)NC1=O (stereo not given) from this test.
False

I'd appreciate the recorded outcome for `CCN(CC)C(=O)/C(Cl)=C(\C)OP(=O)(OC)OC` from this test.
False

I'd appreciate the recorded outcome for O=C(NCNC(=O)NC1C(=O)NC(=O)N1CO)NC1C(=O)NC(=O)N1CO (stereo not given) from this test.
False

I'd appreciate the recorded outcome for CCC(N)Cc1c[nH]c2ccccc12 (stereo not given) from this test.
False

I'd appreciate the recorded outcome for `CN1CCCC(=C(c2cccs2)c2cccs2)C1` from this test.
True

I'd appreciate the recorded outcome for C[N+]1(C)CCCCC1COC(=O)C(O)(c1ccccc1)c1ccccc1 (stereo not given) from this test.
False

I'd appreciate the recorded outcome for COCC(C)N(C(=O)CCl)c1c(C)csc1C (stereo not given) from this test.
False

I'd appreciate the recorded outcome for `CCOC(=O)c1ccccc1C(=O)OCC` from this test.
False

I'd appreciate the recorded outcome for `C[CH2][Hg][S]c1ccccc1C(=O)O` from this test.
True

I'd appreciate the recorded outcome for C[N+]1(C)C2CCC1CC(OC(=O)c1c[nH]c3ccccc13)C2 (stereo not given) from this test.
False

I'd appreciate the recorded outcome for CNC(C)C(O)c1ccc(O)cc1 (stereo not given) from this test.
False

I'd appreciate the recorded outcome for `Cn1sc(Cl)cc1=O` from this test.
False

I'd appreciate the recorded outcome for `c1ccc(C2(N3CCCC3)CCCCC2)cc1` from this test.
True

I'd appreciate the recorded outcome for `CC(=O)OO` from this test.
False

I'd appreciate the recorded outcome for O=C(CS(=O)C(c1ccccc1)c1ccccc1)NO (stereo not given) from this test.
False

====

# assay.target: Cytochrome P450 1A2 (Homo sapiens) (UniProt P05177)
# Sequence (P05177 whole entry, looked up): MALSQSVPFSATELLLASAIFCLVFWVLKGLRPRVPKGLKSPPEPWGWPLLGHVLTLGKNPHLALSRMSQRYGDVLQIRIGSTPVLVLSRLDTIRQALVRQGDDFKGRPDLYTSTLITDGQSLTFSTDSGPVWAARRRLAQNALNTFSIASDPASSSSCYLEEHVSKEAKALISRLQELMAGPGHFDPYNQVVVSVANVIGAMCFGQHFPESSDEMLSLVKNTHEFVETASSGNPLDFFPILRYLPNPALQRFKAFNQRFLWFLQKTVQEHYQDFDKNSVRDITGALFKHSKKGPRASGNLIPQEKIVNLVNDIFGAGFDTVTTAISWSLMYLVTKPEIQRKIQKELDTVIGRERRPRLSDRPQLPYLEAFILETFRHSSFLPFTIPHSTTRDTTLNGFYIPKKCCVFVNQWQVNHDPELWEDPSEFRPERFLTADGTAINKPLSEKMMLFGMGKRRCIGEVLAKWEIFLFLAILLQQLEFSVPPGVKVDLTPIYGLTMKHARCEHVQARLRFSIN
# method.description: p450-cyp1a2 (AID 410)
# measurement.setup: recombinant CYP1A2, luciferin-ME demethylation, luminescence; series mostly up to 57 µM
Results filed as inconclusive are left out. Calls of active or inactive are those of the source. Calls follow the shape of the full dose curve.
Hi there, use one of these labels in your reply, thanks! active, inactive

Consider the following illustrative entries.
>  <compound>
CCCn1c(C)c(C(=O)c2ccc3ccccc3c2)c2ccccc21

>  <class.name>
active

$$$$
>  <compound>
CN1CCc2cc(O)cc3c2[C@H]1Cc1ccc(O)c(O)c1-3

>  <class.name>
active

$$$$
>  <compound>
C[N+]1(C)[C@@H]2CC[C@H]1CC(OC(=O)c1c[nH]c3ccccc13)C2 (stereo not given in full)

>  <class.name>
inactive

$$$$
>  <compound>
CN1CCC(c2c[nH]c3ccc(O)cc23)CC1

>  <class.name>
active

$$$$
>  <compound>
Nc1ccc(CCN2CCN(c3cccc(C(F)(F)F)c3)CC2)cc1

>  <class.name>
active

$$$$
>  <compound>
CC(C)(C)c1cc(C=C(C#N)C#N)cc(C(C)(C)C)c1O

>  <class.name>
active

$$$$
>  <compound>
CNC(=O)OCC[N+](C)(C)C

>  <class.name>
inactive

$$$$
>  <compound>
CCC1(C)CC(=O)NC(=O)C1

>  <class.name>
inactive

$$$$
>  <compound>
O=[N+]([O-])c1ccc2nc(N3CCNCC3)ccc2c1

>  <class.name>
active

$$$$
>  <compound>
CN1CCc2cccc(Cl)c2CC1

>  <class.name>
inactive

$$$$

I'd appreciate the recorded outcome for `NC(=O)CI` from this test.
active

I'd appreciate the recorded outcome for `CC(C)NP(=O)(NC(C)C)OP(=O)(NC(C)C)NC(C)C` from this test.
inactive

I'd appreciate the recorded outcome for `CCC(=O)O[C@@](Cc1ccccc1)(c1ccccc1)[C@@H](C)CN(C)C` from this test.
inactive

I'd appreciate the recorded outcome for `O=C1C=CC(=O)C=C1` from this test.
inactive

====

# method.description: qHTS for differential inhibitors of proliferation of Plasmodium falciparum line 3D7 (AID 1876); also: potency is read from the fitted curve at half-maximal effect
# measurement.setup: P. falciparum 3D7 proliferation inhibition; series mostly up to 28.7 µM
Results filed as inconclusive are left out. Active and inactive are the calls of the source. The call rests on the fitted dose curve; in most records, active means well fitted curve in the direction sought with a large enough effect; inconclusive means small, poorly fitted or top-dose-only effect, or another doubt; inactive means no such curve, though single readings can be large or run the other way.
measured.parameter: Potency

Solved entries:
>  <molecule>
O=C(O)c1cc[c]([Hg][Cl])cc1

>  <measured.parameter>
Potency

>  <recorded.measurement>
2.24 µM (active)

$$$$
>  <molecule>
CC12NC(Cc3ccccc31)c1ccccc12 (stereo not given)

>  <measured.parameter>
Potency

>  <recorded.measurement>
inactive

$$$$
>  <molecule>
CC(=O)c1c(O)c(C)c(O)c(Cc2c(O)c3c(c(C(=O)/C=C/c4ccccc4)c2O)OC(C)(C)C=C3)c1O

>  <measured.parameter>
Potency

>  <recorded.measurement>
3.98 µM (active)

$$$$
>  <molecule>
O=[N+]([O-])c1cc(O)c(O)c([N+](=O)[O-])c1

>  <measured.parameter>
Potency

>  <recorded.measurement>
inactive

$$$$
>  <molecule>
NC(N)=Nc1ccc2[nH]c3c(c2c1)C[C@@]1(O)[C@H]2Cc4ccc(O)c5c4[C@@]1(CCN2CC1CC1)[C@H]3O5

>  <measured.parameter>
Potency

>  <recorded.measurement>
inactive

$$$$
>  <molecule>
CC1OC1P(=O)(O)O (stereo not given)

>  <measured.parameter>
Potency

>  <recorded.measurement>
inactive

$$$$

For the molecule CC(C)(C)c1o[nH]c(=O)c1CC(N)C(=O)O (stereo not given) , report Potency.
inactive

For the molecule `C[C@@H]1O[C@H](C[N+](C)(C)C)CS1` , report Potency.
inactive

For the molecule `CN(N=O)c1cc(O)ccc1O` , report Potency.
inactive

For the molecule NCC(O)c1cc(O)c(O)cc1F (stereo not given) , report Potency.
inactive

For the molecule `C=CCN1C[C@@H](C)N([C@H](c2ccc(C(=O)N(CC)CC)cc2)c2cccc(OC)c2)C[C@@H]1C` , report Potency.
3.16 µM (active)

For the molecule `COc1ccc2[nH]cc(CCN)c2c1` , report Potency.
inactive

meta.source: PubChem BioAssay (NCATS)
